Target: RET (658-1114) (Homo sapiens, UniProt P07949)
Construct: 658-1114; expressed in transfected cells; host or cells: 293T.144 (293T cells, generated in-house)
Sequence (P07949 658-1114): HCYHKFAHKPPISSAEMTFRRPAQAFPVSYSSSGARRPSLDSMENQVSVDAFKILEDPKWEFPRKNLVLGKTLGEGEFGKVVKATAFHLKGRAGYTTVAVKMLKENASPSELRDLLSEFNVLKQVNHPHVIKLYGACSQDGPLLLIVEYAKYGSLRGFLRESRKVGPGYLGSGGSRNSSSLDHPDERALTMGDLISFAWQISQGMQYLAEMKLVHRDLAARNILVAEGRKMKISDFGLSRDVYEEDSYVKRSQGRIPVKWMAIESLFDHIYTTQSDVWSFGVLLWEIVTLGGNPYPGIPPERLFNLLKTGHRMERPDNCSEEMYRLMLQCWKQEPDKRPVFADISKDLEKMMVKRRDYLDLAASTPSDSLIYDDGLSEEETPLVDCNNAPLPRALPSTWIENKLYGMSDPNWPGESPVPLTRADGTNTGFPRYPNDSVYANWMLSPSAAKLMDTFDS
Test: HiBiT-Degradation, RET wild-type degradation assay (Nano-Glo HiBiT Lytic), 293T.144 cells
Format: cell-based
Details: 6.0 hours, % remaining protein, read-out: 293T.144 RET (658-1114) 6.0 hours (Emax)
This listing pairs compounds with measured Emax.

{"columns": ["COMPOUND", "Emax"],
 "data": [
  ["CO[C@@H](C(=O)N1CCN(c2ccc(-c3nc(-c4cnn([C@H]5CC[C@@H](N6CCN(c7c(F)cc(NC8CCC(=O)NC8=O)cc7F)CC6)CC5)c4)cn4ncc(C#N)c34)cn2)CC1)c1ccccc1 (single isomer, unassigned)", "< 30%"],
  ["COc1cc(N2CCN([C@H]3CC[C@H](n4cc(-c5cn6ncc(C#N)c6c(-c6ccc(N7CC8CC(C7)N8Cc7ccccc7S(C)(=O)=O)nc6)n5)cn4)CC3)CC2)c(F)cc1NC1CCC(=O)NC1=O (some centres unmarked)", "< 30%"]
]}
